For each entry below, report its pIC50 value.
molecular target: Human immunodeficiency virus type 1 reverse transcriptase (Human immunodeficiency virus 1, UniProt Q72547)
// returns pIC50 (minus log10 of molar concentration), number only

Task: Entry `Cc1c(Sc2ccccc2)n(COCCO)c(=O)[nH]c1=O` : reported pIC50 = ?
Result: 4.77

Task: Entry `CC(C)c1c(Cc2ccccc2)n(COCc2ccccc2)c(=O)[nH]c1=O` : reported pIC50 = ?
Result: 8.22
